- SYSTEM_TESTED: T1, Mouse EphA2 (Ecto) (Mouse, UniProt Q03145 26-538)
- T1 construct: extracellular domain; Fluorescence polarisation assays; not shown: Fc fusion (R&D Systems 639-A2) or C-terminal polyHis (Sino Biological 50586-M08H)
- ASSAY_NAME: FP competition vs Reference Compound C
*1 amine or outer side, *2 acyl side, *3 side chain or, on linkers, in order; H or OH if unused. Bridges are numbered along the chain shown (N, C = ends). Where no end group is shown, it is not given here. TATA = O=C(CC[*:1])N1CN(C(=O)CC[*:2])CN(C(=O)CC[*:3])C1
TEST_READOUT: Ki (nM)
Entry rule: numbers only, all in nM.

*Q* Return reported Ki; argument: Ac-ARDCPLVNPLCLHPGWTCA (linker 4-11-18 via TATA; not fully specified (C-terminus); printed as Ac-ARDCPLVNPLCLHPGWTCA-Sar6-(D-K)) [Compound 68]
*A* 166

*Q* Return reported Ki; argument: CPLVNPLCLHPGWSCRGQ (N-terminal Ac; C-terminal -Sar6-(D-K); TATA scaffold on the 3 Cys, also called Compound 91) [BCY6042]
*A* 49.9

*Q* Return reported Ki; argument: CPLVNPLCLHPGWTCLHG (N-terminal Ac; C-terminal -Sar6-(D-K); TATA scaffold on the 3 Cys, also called Compound 77) [BCY6019]
*A* 48.2

*Q* Return reported Ki; argument: AXDCPLVNPLCLHPGWTCA (not fully specified; N-terminal Ac; HArg; C-terminal -Sar6-(D-K); TATA scaffold on the 3 Cys) [Compound 69]
*A* 164

*Q* Return reported Ki; argument: ACPLVNPLCLHPGWTCLXG (not fully specified; N-terminal (β-Ala)-Sar10; D-His; TATA scaffold on the 3 Cys) [Compound 76]
*A* 75.2

*Q* Return reported Ki; argument: ACPLVNPLCLHPGWSCXGQ (not fully specified; N-terminal (β-Ala)-Sar10; HArg; TATA scaffold on the 3 Cys) [Compound 90]
*A* 47

*Q* Return reported Ki; argument: ACPLVNPLCLHPGWSCRGQ (linker 2-9-16 via TATA, also called Compound 87) [BCY6026]
*A* 18.6
